Measured log10 EC50 values are reported for all entries that follow.
- Tested on: Tau phosphorylation at Ser396 (pSer396)
- assay-info: Tau phosphorylation assay (pSer396 ELISA / western blot) in SH-SY5Y cells;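 note: EC50 for reduction of Tau pSer396 in lysed cells, measured by colorimetric ELISA or chemiluminescent western blot, both using the same pSer396 antibody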
- Type: cell-based, human
- condition-label: Homo sapiens; SH-SY5Y cells, overnight (16-18 h) exposure; read-out: pSer396 Tau EC50
Answers are given as log10 of EC50 in µM.

Some compounds with known log10 EC50 results, for comparison:
O=C(Nc1cc2cc(-c3cnn(C4CC4)c3)ccc2cn1)C1CCN(CCC(F)(F)F)CC1	0.15
Cn1cc(-c2ccc3cnc(NC(=O)CN4CCC(C(F)F)CC4)cc3c2)cn1	-0.37
COCCN1CCC(C(=O)Nc2cc3cc(-c4cnn(C)c4)ccc3cn2)CC1	-0.44
CC(F)(F)CN1CCC(C(=O)Nc2cc3cc(-c4cncs4)ccc3cn2)CC1	-0.35
CC(C)CN1CCN(CC(=O)Nc2cc3cc(-c4cnn(C)c4)ccc3cn2)CC1	0.22
CC(C(=O)Nc1cc2cc(-c3cnn(C)c3)ccc2cn1)N1CCCC1 (centres unmarked)	-0.80
Cn1ncc(-c2ccc3cnc(NC(=O)C4CC5(C4)CN(CCF)C5)cc3c2)c1CN1CCCCC1	-1.26

Please examine the following record next.
According to the records, this compound "Cn1cc(-c2ccc3cnc(NC(=O)C4CCN(Cc5ccccc5)CC4)cc3c2)cn1" displays log10 EC50 of -0.54
